# test-details: Half life in mouse at 20 mg/kg, ip
# Format: ADME, organism-based
# test-settings: in vivo
Kindly state half-life for each of the entries shown.

entry-smiles | half-life
C#Cc1cccc(Oc2ccc(-c3nn([C@@H]4CCCN(C(=O)/C=C/C(=O)OC)C4)c4ncnc(N)c34)cc2)c1 | < 0.0333 h
C#Cc1cccc(Oc2ccc(-c3nn([C@@H]4CCCN(C(=O)/C=C/C(=O)OC(C)C)C4)c4ncnc(N)c34)cc2)c1 | < 0.0333 h
C#Cc1cccc(Oc2ccc(-c3nn([C@@H]4CCCN(C(=O)/C=C/C(=O)O)C4)c4ncnc(N)c34)cc2)c1 | 2.15 h

Next item in the queue.
Task: Which half-life is reported for this molecule? "C#Cc1cccc(Oc2ccc(-c3nn([C@@H]4CCCN(C(=O)C=C)C4)c4ncnc(N)c34)cc2)c1"
Output: 2.8 h

---

# test-details: Half life of the compound at pH 7.5
# Format: physicochemical
measured-endpoint: half-life

Task: Which half-life is reported for this molecule? "O=S(=O)(F)c1ccccc1"
Output: 5 to 15 min

---

# test-target: UniProtKB Q96C86
# Sequence (Q96C86 whole entry): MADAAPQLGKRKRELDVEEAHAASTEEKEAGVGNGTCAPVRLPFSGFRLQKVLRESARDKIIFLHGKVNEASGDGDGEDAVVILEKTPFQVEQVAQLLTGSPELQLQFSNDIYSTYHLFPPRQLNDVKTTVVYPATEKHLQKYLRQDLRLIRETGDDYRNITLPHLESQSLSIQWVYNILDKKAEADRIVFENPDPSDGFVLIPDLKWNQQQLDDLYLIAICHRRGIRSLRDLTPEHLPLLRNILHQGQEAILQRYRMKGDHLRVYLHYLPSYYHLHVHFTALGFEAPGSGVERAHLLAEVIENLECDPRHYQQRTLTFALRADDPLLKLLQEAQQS
pIC50: −log10 of the molar value.
measured-endpoint: pIC50

Task: Which pIC50 is reported for this molecule? "Nc1nc(N)c2c(OCc3ccc(S(=O)(=O)F)cc3)cccc2n1"
Output: > 10.70

---

# test-details: Inhibition of PLK1 C675 mutant (unknown origin)
# Set-up: species or system Homo sapiens
pIC50: −log10 of the molar value.
measured-endpoint: pIC50

Task: Which pIC50 is reported for this compound? NC(=O)c1sc2c([n+]1[O-])C(SC[C@H](N)C(=O)O)C(C(F)(F)F)=CC2[N+](=O)[O-] (stereo partly specified)
Output: < 4.00

---

# test-details: Half life in plasma (unknown origin)
# Type: ADME, cell-free
measured-endpoint: half-life (h)
One number for each entry, in h.

Task: Which half-life is reported for this compound? "CN(C)c1ccc(S(=O)(=O)F)cc1"
Output: 25.1

---

# test-target: Phosphatidylinositol 4,5-bisphosphate 3-kinase catalytic subunit delta isoform (Homo sapiens)
# test-details: Inhibition of PI3Kdelta (unknown origin)
measured-endpoint: IC50 (nM)
One number for each entry, in nM.

Task: Which IC50 is reported for this molecule? "COc1ncc(-c2cc(-c3ncc(CN4CCN(C(C)C)CC4)o3)c3cn[nH]c3c2)cc1C(=O)Oc1ccc([N+](=O)[O-])cc1"
Output: 0.617

---

# test-target: ALK tyrosine kinase receptor (Homo sapiens, UniProt Q9UM73)
# Sequence (Q9UM73 whole entry): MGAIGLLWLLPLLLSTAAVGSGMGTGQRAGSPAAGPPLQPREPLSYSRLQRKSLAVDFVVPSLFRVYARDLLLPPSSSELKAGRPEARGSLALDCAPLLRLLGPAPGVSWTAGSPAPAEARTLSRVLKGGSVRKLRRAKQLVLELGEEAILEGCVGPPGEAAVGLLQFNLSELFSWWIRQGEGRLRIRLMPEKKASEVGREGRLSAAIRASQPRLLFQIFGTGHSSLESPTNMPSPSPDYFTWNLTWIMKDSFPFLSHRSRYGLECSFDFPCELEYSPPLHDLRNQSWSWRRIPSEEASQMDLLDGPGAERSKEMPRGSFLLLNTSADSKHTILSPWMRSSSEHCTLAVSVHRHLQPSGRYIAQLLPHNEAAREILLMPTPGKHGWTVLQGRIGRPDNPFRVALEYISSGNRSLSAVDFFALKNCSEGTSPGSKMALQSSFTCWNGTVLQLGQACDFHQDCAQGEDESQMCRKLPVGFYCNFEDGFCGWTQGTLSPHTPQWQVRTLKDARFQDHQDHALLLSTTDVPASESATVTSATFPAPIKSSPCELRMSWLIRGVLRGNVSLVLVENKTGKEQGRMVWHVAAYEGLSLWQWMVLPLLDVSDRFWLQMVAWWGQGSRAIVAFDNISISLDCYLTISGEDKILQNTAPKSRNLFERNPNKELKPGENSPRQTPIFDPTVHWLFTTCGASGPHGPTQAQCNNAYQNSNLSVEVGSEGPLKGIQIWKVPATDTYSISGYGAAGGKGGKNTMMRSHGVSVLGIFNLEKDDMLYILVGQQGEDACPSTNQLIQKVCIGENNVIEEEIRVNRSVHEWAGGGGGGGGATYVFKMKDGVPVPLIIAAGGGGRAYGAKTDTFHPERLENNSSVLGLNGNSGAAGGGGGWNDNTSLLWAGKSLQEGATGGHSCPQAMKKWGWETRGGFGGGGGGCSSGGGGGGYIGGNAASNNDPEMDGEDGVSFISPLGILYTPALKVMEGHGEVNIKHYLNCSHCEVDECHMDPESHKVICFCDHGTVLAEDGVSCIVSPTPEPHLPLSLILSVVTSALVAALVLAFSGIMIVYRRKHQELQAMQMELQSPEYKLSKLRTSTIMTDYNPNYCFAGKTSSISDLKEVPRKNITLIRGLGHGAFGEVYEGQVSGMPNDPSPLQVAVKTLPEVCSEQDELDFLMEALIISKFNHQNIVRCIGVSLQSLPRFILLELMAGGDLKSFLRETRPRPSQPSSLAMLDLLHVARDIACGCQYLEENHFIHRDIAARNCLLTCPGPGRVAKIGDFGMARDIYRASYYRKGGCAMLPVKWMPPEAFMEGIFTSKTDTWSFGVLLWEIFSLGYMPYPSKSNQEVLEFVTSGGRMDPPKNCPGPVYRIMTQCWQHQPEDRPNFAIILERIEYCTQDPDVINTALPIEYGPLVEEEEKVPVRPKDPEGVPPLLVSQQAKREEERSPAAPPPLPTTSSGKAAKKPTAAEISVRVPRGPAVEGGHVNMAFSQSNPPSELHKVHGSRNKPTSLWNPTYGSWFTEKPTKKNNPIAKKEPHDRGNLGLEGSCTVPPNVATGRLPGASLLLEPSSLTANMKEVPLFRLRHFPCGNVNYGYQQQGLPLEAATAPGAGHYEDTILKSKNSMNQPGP
measured-endpoint: IC50 (µM)
Numbers only, in µM.

Task: Which IC50 is reported for this compound? "CCc1cc2c(cc1-c1cccc(S(=O)(=O)F)c1)C(C)(C)c1[nH]c3cc(C#N)ccc3c1C2=O"
Output: 0.011

---

# test-details: Cysteine reactivity assessed as cysteine oxidation
# Format: physicochemical
Kindly state K for each of the entries shown.
Numbers only, in min⁻¹.

Solved cases (10 shown):
compound | K (min⁻¹)
O=C1CS(=O)(=O)Cc2ccccc21 | 54.9
CS(=O)(=O)CC#N | 28.6
O=C1CCC(=O)C1 | 0.02
O=C1CCN(Cc2ccccc2)C(=O)C1 | 86.4
O=C1CCCC(=O)C1 | 0.4
CC(=O)CC(C)=O | 3.8
N#CCS(=O)(=O)c1ccccc1 | 78
C[C@@H]1CCN(C(=O)CC#N)C[C@@H]1N(C)c1ncnc2[nH]ccc12 [TOFACITINIB] | 0.4
CC(=O)CS(=O)(=O)c1ccccc1 | 8.7
O=[N+]([O-])CS(=O)(=O)c1ccccc1 | 7.8

For each listed entry, give its K.
1. O=C1CC(=O)c2ccccc21
2. O=C1CC(=O)NC(=O)N1 [BARBITURIC ACID]
3. O=C1CS(=O)(=O)N(Cc2ccccc2)c2ccccc21

Output:
1. 22.9
2. 0.2
3. 190.5

---

# test-details: Dissociation constant, pKa of the compound
# Type: physicochemical
measured-endpoint: pKa
Give bare numbers.

Task: Which pKa is reported for this compound? "O=C(O)CC=[N+]([O-])[O-]"
Output: 9

---

# test-target: SRSF protein kinase 1 (Homo sapiens)
# Sequence (Q96SB4 whole entry): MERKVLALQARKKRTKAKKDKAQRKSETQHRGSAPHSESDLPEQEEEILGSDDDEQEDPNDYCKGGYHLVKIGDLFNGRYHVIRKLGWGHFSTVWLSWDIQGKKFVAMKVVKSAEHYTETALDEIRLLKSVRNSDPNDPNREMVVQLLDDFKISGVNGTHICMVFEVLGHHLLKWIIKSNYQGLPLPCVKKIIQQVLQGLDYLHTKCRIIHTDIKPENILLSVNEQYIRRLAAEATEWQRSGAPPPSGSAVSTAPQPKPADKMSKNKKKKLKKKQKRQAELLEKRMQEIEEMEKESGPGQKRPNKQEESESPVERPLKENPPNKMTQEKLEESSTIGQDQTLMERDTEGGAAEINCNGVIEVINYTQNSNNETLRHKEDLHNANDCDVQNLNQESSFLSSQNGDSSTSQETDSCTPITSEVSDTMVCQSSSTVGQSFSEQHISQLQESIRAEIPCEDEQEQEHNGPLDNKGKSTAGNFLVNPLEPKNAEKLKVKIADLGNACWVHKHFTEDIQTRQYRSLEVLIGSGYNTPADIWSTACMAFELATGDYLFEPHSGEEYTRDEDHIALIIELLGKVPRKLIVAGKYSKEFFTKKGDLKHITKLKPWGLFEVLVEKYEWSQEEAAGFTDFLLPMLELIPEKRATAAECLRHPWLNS
measured-endpoint: IC50 (nM)
One number for each entry, in nM.

Task: Which IC50 is reported for this compound? CCc1cc2c(cc1N1CCC(N3CCOCC3)CC1)C(C)(C)c1[nH]c3cc(C#N)ccc3c1C2=O [ALECTINIB]
Output: 11

---

# test-target: Phosphatidylinositol 4,5-bisphosphate 3-kinase catalytic subunit delta isoform (Homo sapiens, UniProt O00329)
# Sequence (O00329 whole entry, canonical isoform): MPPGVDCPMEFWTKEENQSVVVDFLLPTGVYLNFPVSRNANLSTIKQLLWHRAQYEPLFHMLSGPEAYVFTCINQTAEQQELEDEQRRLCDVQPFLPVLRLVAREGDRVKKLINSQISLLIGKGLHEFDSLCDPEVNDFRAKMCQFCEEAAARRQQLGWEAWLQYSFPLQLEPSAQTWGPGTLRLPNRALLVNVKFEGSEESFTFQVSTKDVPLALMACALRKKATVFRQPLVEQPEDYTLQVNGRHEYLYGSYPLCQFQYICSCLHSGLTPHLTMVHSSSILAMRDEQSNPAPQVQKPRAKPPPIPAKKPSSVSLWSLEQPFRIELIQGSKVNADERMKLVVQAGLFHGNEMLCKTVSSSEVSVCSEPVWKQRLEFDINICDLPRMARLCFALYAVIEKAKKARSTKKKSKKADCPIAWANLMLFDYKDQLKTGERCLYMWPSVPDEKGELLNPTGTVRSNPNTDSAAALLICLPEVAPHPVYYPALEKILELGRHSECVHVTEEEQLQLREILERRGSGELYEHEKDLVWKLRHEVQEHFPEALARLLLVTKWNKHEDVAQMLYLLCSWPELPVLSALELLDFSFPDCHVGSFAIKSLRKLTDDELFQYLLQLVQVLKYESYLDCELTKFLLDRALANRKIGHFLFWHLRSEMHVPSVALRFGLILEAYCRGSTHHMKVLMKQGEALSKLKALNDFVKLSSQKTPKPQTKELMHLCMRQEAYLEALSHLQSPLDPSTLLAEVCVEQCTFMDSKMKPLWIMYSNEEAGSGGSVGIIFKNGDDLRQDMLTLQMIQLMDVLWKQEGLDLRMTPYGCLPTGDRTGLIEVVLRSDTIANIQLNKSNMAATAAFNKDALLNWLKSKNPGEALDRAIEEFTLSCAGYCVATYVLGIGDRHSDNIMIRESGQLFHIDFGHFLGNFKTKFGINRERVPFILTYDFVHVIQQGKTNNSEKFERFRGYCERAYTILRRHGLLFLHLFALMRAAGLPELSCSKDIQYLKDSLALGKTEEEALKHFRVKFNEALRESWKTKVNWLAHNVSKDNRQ
# test-details: Inhibition of PI3Kdelta (unknown origin)
Kindly state pKi for each of the entries shown.
Give bare numbers, as −log10 of the molar value.

entry-smiles | pKi
COc1ncc(-c2cc(-c3ncc(CN4CCN(C(C)C)CC4)o3)c3cn[nH]c3c2)cc1C(=O)Oc1ccc(C)cc1C | 5.11

Next item in the queue.
Task: Which pKi is reported for this compound? "COc1ncc(-c2cc(-c3ncc(CN4CCN(C(C)C)CC4)o3)c3cn[nH]c3c2)cc1C(=O)Oc1ccc([N+](=O)[O-])cc1"
Output: 7.40

---

# test-details: Cysteine reactivity assessed as cysteine oxidation
# Type: physicochemical
measured-endpoint: log10(K) (log10 of the value in M⁻¹ s⁻¹)
Field: value | Transform: log10 | Quantity: K | Unit: M⁻¹ s⁻¹

Solved cases (4 shown):
compound | measured-endpoint | observed-value
C#CCCCN1CCC(=O)CC1=O | log10(K) | 3.06
C#CCCCN1CC(=O)CC1=O | log10(K) | 2.52
C#CCCCN1c2ccccc2C(=O)CS1(=O)=O | log10(K) | 3.23
C#CCCCN1CS(=O)(=O)CC1=O | log10(K) | 1.30

Next item in the queue.
Task: Which log10(K) is reported for this compound? C#CCCCC1CCC(=O)CC1=O (stereo not given)
Output: 1.00
